Data provenance: patent US20210106652A1

biological target: HLA-A*0201 (Homo sapiens, UniProt P04439, D140Y/D185E/D98H/E176V/E277Q/G131W/G231S/I119V/I121R/I166T/I218V/L300P/L318F/N151K/N90K/P208A/P217A/Q86G/Q94H/R138H/R169H/T345S); construct: human tumoral cell T2 which expresses the HLA-A*0201 molecule; endogenous in cells; host or cells: T2 cells (human, TAP1/2 negative); assay: Affinity of the peptide to HLA-A*0201 on T2 cell line (FACS, anti-HLA-A2); format: binding; conditions: T2 cells
experimental readout: binding to HLA-A*0201 (in words)

sequence data | experimental readout | test value
YLYTFLIST [IL13RA2-B2] | binding to HLA-A*0201 (in words) | bind strongly
FLPFGFILV [IL13RA2-B] | binding to HLA-A*0201 (in words) | bind strongly
